Target: SHV-1 (Klebsiella pneumoniae, UniProt P0AD64)
Construct: made in house; host or cells: E. coli (DH5 and BL21(DE3) named; pET-28a)
Sequence (P0AD64 22-286): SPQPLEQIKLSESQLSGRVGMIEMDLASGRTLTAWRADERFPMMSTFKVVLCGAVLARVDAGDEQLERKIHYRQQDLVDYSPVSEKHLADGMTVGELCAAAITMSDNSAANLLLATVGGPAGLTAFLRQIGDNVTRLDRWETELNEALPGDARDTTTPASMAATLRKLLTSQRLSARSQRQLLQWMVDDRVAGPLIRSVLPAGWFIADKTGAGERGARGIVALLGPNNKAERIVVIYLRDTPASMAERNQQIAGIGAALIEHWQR
Assay: Steady-state kinetics of antibiotic hydrolysis with inhibitor
Type: biochemical
Settings: meropenem, inhibitor concentration as per IC50
endpoint.name: Km or Ki (μΜ)
Give bare numbers, in μΜ.

{"molecule": "NC(=O)[C@@H]1CC[C@@H]2CN1C(=O)N2OS(=O)(=O)O [Avibactam, reference compound]", "endpoint.name": "Km or Ki", "measured.value": 532}

Please turn your attention to the following entry.
Look up Km or Ki with SHV-1 (Klebsiella pneumoniae, UniProt P0AD64) for this molecule: O=C(O)c1ccccc1C(=O)N1CCN(c2nc(-c3ccccc3)ns2)CC1 [D2573] 979

---

Would you kindly list kcat for each of these compounds?
Target: SHV-1 (Klebsiella pneumoniae)
Construct: made in house; host or cells: E. coli (DH5 and BL21(DE3) named; pET-28a)
Test: Steady-state kinetics of antibiotic hydrolysis with inhibitor
Assay type: biochemical
Details: imipenem, inhibitor concentration as per IC50
Give bare numbers, in S^−1.

Sample answers from the record:
{"compound": "NC(=O)[C@@H]1CC[C@@H]2CN1C(=O)N2OS(=O)(=O)O [Avibactam, reference compound]", "measurement.target": "SHV-1 (Klebsiella pneumoniae)", "kcat [S^−1]": 0.5531}
{"compound": "O=C(CN1C(=O)c2ccccc2S1(=O)=O)c1ccc(O)c(O)c1", "measurement.target": "SHV-1 (Klebsiella pneumoniae)", "kcat [S^−1]": 1.525}
{"compound": "O=C(O)c1ccccc1C(=O)N1CCN(c2nc(-c3ccccc3)ns2)CC1", "measurement.target": "SHV-1 (Klebsiella pneumoniae)", "kcat [S^−1]": 0.958}

Shifting focus to the compound that follows.
Request the reported kcat associated with O=C(c1ccccc1)C1CCN(C(=O)CN2C(=O)c3ccccc3C2=O)CC1 5.535

---

For each record, write down the corresponding IC50.
Molecular target: UniProt P00811
Sequence (P00811 20-377): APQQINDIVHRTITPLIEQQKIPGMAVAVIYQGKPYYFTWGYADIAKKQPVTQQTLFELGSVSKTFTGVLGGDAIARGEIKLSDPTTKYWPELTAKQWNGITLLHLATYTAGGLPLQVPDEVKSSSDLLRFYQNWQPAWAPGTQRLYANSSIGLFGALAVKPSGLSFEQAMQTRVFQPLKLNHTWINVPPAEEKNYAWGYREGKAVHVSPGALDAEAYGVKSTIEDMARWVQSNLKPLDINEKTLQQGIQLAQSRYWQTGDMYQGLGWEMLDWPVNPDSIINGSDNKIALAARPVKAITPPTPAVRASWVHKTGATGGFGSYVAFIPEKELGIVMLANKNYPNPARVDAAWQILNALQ
One number for each entry, in pM.

Example entries begin here.
{"molecule": "O=C(c1ccccc1)C1CCN(C(=O)CN2C(=O)c3ccccc3C2=O)CC1 [D2148]", "measured.value": 714}
{"molecule": "O=C(CN1C(=O)c2ccccc2S1(=O)=O)c1ccc(O)c(O)c1 [D63]", "measured.value": 609}

With those in mind, consider the next molecule.
So what's the measured IC50 for this one? O=C(O)c1ccccc1C(=O)N1CCN(c2nc(-c3ccccc3)ns2)CC1 [D2573] 655

---

Molecular target: SHV-1 (Klebsiella pneumoniae, UniProt P0AD64)
Construct: made in house; host or cells: E. coli (DH5 and BL21(DE3) named; pET-28a)
Experiment: Steady-state kinetics of antibiotic hydrolysis with inhibitor
Format: biochemical
Details: cefotaxime, inhibitor concentration as per IC50
endpoint.name: Km or Ki (μΜ)
One number for each entry, in μΜ.

{"smiles.text": "O=C(c1ccccc1)C1CCN(C(=O)CN2C(=O)c3ccccc3C2=O)CC1", "measured.value": 626.2}

Now consider a different molecule.
// returns reported Km or Ki for input O=C(O)c1ccccc1C(=O)N1CCN(c2nc(-c3ccccc3)ns2)CC1 608

---

Answer each item with its documented kcat.
Biological target: KPC-2 (Klebsiella pneumoniae)
Construct: made in house; host or cells: E. coli (DH5 and BL21(DE3) named; pET-28a)
Sequence (Q9F663 25-293, looked up, species assumed): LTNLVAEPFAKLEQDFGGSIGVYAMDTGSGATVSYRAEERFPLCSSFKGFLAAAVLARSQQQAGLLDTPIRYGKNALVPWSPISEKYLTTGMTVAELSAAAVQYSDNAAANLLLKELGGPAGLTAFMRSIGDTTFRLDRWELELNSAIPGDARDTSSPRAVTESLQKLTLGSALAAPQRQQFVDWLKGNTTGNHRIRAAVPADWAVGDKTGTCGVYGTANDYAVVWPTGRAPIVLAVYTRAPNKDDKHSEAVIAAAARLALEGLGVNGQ
Experiment: Steady-state kinetics of antibiotic hydrolysis with inhibitor
Assay type: biochemical
Conditions: cefotaxime, inhibitor concentration as per IC50
Answers are plain numbers, in S^−1.

In the examples that follow, each entry is paired with its recorded kcat.
{"molecule": "NC(=O)[C@@H]1CC[C@@H]2CN1C(=O)N2OS(=O)(=O)O [Avibactam, reference compound]", "kcat / S^−1": 0.549}
{"molecule": "O=C(c1ccccc1)C1CCN(C(=O)CN2C(=O)c3ccccc3C2=O)CC1", "kcat / S^−1": 3.293}
{"molecule": "O=C(CN1C(=O)c2ccccc2S1(=O)=O)c1ccc(O)c(O)c1", "kcat / S^−1": 0.384}

Please find the next molecule below.
Any idea what kcat was measured for O=C(O)c1ccccc1C(=O)N1CCN(c2nc(-c3ccccc3)ns2)CC1 ? 0.454
